Provide the reported apparent KD of K4 kissing-loop reporter of each item.
# System: K4 kissing-loop RNA reporter;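 also: bound reporter read as fluorescence of individual clusters on recovered sequencing chips by microscopy, with normalized cluster intensities fitted with a binding model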
# PROCEDURE_TEXT: apparent KD of K4 kissing-loop reporter; higher = weaker reporter binding
# RECORDED_CONDITIONS: Eterna round: R107; input ligand: none
Give your result in nM as a bare value.

Annotate the sequence CGUCACACUUGAUGGUUAUCCAAUGAUGAUACCAGCCGUCGAGAUGGCCCUUGGCAGCAUGUGGUACAGUGAUGUUGUACAUUGG [theeternabot_sameState_KL_Theo_A_30] with its measured apparent KD of K4 kissing-loop reporter.
383

Quote apparent KD of K4 kissing-loop reporter reported for ACGUAUAUCAGAGGAUAUCGUAUUAAUAUUUUAUCUAUAUAGUUUUGCAGUGAUGUUGCAAUUAUUCGAGAAGGCUGAUUUACGA [JR_SSFMNB_Sub024] please.
75.3

// fetch apparent KD of K4 kissing-loop reporter given entry UGAUACCAGACGGCCGCCACUCCUGCAGUCAAAGACUGCAAGGAAAUAUUCGUCCAGUGAUGUUGGAGGACCGGGUCUGGUAUCU [TrypBX 9 #SwitchBubble #Palindromic #StaticStem]
820

Please report apparent KD of K4 kissing-loop reporter for the following sequence: GAGCGGUGGAGGUUACCGCUAUUCUGAGAAGGAGCGCAGAAGACUGCAGGUAGGUCGCUUAGAGCUUGCAGUGAUGUUGCAAGUU [KL-SSArg-A13]
141

Give the value of apparent KD of K4 kissing-loop reporter reported for the following: UGAUACCAGACGGCCGCCACUUCUGCAAGUCAAAGACUUGCUAAGGGAAUCGUCCAGUGAUGUUGGAGGACCGGGUCUGGUAUCU [FiskerMod 2 - Jieux - Exclusion - Tryptophan B]
1200

###

# System: MS2 coat protein
# PROCEDURE_TEXT: apparent KD of MS2 coat protein; designed switch direction (-1 OFF switch, 1 ON switch): -1; higher = weaker reporter binding
# RECORDED_CONDITIONS: input ligand: FMN 200 uM
Record form. Attribute: apparent KD of MS2 coat protein. Fill in for each entry.
Please state the figure in nM; there is no need to write the unit.

State, in one line, measured apparent KD of MS2 coat protein of AGUUGUUGCGCAGGAUAUGAGGAUCACCCAUAGUAGGAUAUCGAAAGGGAAGGACUGAGGAUUACCCAGAAGGGCGUGAUGACA [pwkr exNG2 2xF5 2xFMN.7] (Eterna round: R96, puzzle: Exclusion NG 2)
1530

Give the measured apparent KD of MS2 coat protein for ACAAGGAUGAAGGAUAUGGAAGAGUGGGAGCCUCCAGAAGGUCGUACAUGAGGAUCACCCAUGUAUUGGGCUUA [Eternabot (L2) Solution 38] (Eterna round: R97, puzzle: Exclusion 6)
22.5

Return reported apparent KD of MS2 coat protein. Input sequence: AGCGAUCAUGUUAGGAUAUCCAAGCAGACGCUCAAGGAGAAGGAACAUGAGGAUCACCCAUGUUUGAUCCAAAC [Usrediza] (Eterna round: R97, puzzle: Brourd's mod of Exclusion 4)
104

Fill in apparent KD of MS2 coat protein for record UUAGCUUCAGGAUAUACAGUGGGCUGGGAUCUAAAGAUCAAACAUGAGGAUCACCCAUGUAGAAGGGAACGGAA [Eternabot (L2) Solution 32] (Eterna round: R97, puzzle: Exclusion 2)
380

Look up apparent KD of MS2 coat protein of CUGUAAAGGAAGGAUAUGCUAGACGAAAGUCUAGCAGAAGGUCCUACAUGAGGAUCACCCAUGUGGCCUCACAG [Mat - Exclusion 6 - Eli Mod - D50] (Eterna round: R97, puzzle: Exclusion 6) and report it.
1500

Provide only the value of recorded apparent KD of MS2 coat protein for AAUUAGCAAGCGAGAUCCCACAUGAGGAUCACCCAUGUGCUCGUCUUAUAUAAGGUACUGUACGAGAGUACGGUACC [Mat - Sensor, turn-off var - Eli Mod - D30] (Eterna round: R97, puzzle: Sensor, turn-off variant 1)
12.1

Look up and state reported apparent KD of MS2 coat protein for CCAACCAGAGGAUAUGCGCAUAGAUCAGACUUUGUUUCUUAACAUGAGGAUCACCCAUGUAGAAGGCUGUAACC [Ex2 #76] (Eterna round: R97, puzzle: Exclusion 2)
21.6

Read off the recorded apparent KD of MS2 coat protein for UGCAAGCUUUUAAGAUCCUACAUGAGGAUCACCCAUGUGGCUCGUCUUAUACGUACUGUGACGAAAGUCACGGUACG [JL TOV1 3.98] (Eterna round: R97, puzzle: Sensor, turn-off variant 1)
25.4

Tell me apparent KD of MS2 coat protein reported for UGUUGUCGCGCAGGAUAUGGCCAACAGGCCCUAGGAUAUCGGAAACGAGAAGGAGCGCCAACAGGCGAGAAGGGCGGGACAACU [pwkr exNG2 2xF7 2xFMN.18] (Eterna round: R96, puzzle: Exclusion NG 2)
85.9
